Attribution: the supplement of paper PMC10567573

B1: WDR88 (parent)
chain: LLTITKAHSNAISNCCFTFSGHFL

Variants of: B1
Experiment: protein stability index of a GFP-peptide fusion (GPS, HEK-293T) (PSI 1-6); higher = more stable;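 note: lentivirally expressed fusions sorted by FACS into six bins by GFP to DsRed ratio, PSI derived from sequencing read proportions per bin multiplied by bin number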
Conditions: c terminus: a fixed tail appended
Field: protein stability index. Provide a value for each of the variants that follow.
Lab note: jot the number down without any unit.

Per the record, `LLTITKAHSNAISDCCFTFSGHFL` has protein stability index of 3.07

Per the record, `LLGITKAHSNAISNCCFTFSGHFL` has protein stability index of 1.94

Per the record, `LLTITKAHSNAISNCCPTFSGHFL` has protein stability index of 2.13

Per the record, `LVTITKAHSNAISNCCFTFSGHFL` has protein stability index of 2.33

Per the record, `LLTITKAHSNAISNCYFTFSGHFL` has protein stability index of 2.18

Per the record, `LLTITKAHSNAISNCIFTFSGHFL` has protein stability index of 2.8

Per the record, `LLTITKAHSNAISNNCFTFSGHFL` has protein stability index of 2.98

Per the record, `LTTITKAHSNAISNCCFTFSGHFL` has protein stability index of 2.71

Per the record, `LLYITKAHSNAISNCCFTFSGHFL` has protein stability index of 2.92

Per the record, `LLTITKAHSNAISNCEFTFSGHFL` has protein stability index of 2.9

Per the record, `LLTITKAHSCAISNCCFTFSGHFL` has protein stability index of 4.06

Per the record, `LLTITKLHSNAISNCCFTFSGHFL` has protein stability index of 3.04

Per the record, `LITITKAHSNAISNCCFTFSGHFL` has protein stability index of 3.28

Per the record, `ALTITKAHSNAISNCCFTFSGHFL` has protein stability index of 3.61

Per the record, `LLTITKAHSNAISNCCFTFSGHFR` has protein stability index of 2.28

Per the record, `LLTITKAHSNAISNCCFPFSGHFL` has protein stability index of 2.54

Per the record, `LLTITKAHSNAISNCCFTFSFHFL` has protein stability index of 2.41

Per the record, `LLTITKAHSNAASNCCFTFSGHFL` has protein stability index of 2.3

Per the record, `LLTITDAHSNAISNCCFTFSGHFL` has protein stability index of 1.83

Per the record, `LLTITKAHSNAISNCCVTFSGHFL` has protein stability index of 2.88

Per the record, `LLTTTKAHSNAISNCCFTFSGHFL` has protein stability index of 2.8

Per the record, `LLTITKAHSNAISNCCFTVSGHFL` has protein stability index of 2.15

Per the record, `LLTITKAHSNAISNCCFHFSGHFL` has protein stability index of 2.53

Per the record, `LLTITKAHSNAISNCVFTFSGHFL` has protein stability index of 1.95

Per the record, `LLTITKAHSNAISNCCFTFSGAFL` has protein stability index of 2.56

Per the record, `LLTITKAHSNAISNCCFGFSGHFL` has protein stability index of 3.29

Per the record, `LLTITKAHSNAISNCCFTFSGHPL` has protein stability index of 2.96

Per the record, `LLTITKAHSNAISNGCFTFSGHFL` has protein stability index of 2.42

Per the record, `LLTITKAHSNAISNCCFTFGGHFL` has protein stability index of 2.99

Per the record, `SLTITKAHSNAISNCCFTFSGHFL` has protein stability index of 1.76

Per the record, `LLTITKAHSNAISNCCFCFSGHFL` has protein stability index of 2.47

Per the record, `LLTITKAHQNAISNCCFTFSGHFL` has protein stability index of 3.42

Per the record, `LLTITKAHSNAISNCCFTFSGHFN` has protein stability index of 3.3

Per the record, `LLTITKAHSNAISPCCFTFSGHFL` has protein stability index of 3.55

Per the record, `LLTITKAHSNAISNCCFTNSGHFL` has protein stability index of 2.33

Per the record, `LLTITKAHSNAITNCCFTFSGHFL` has protein stability index of 3.02

Per the record, `LKTITKAHSNAISNCCFTFSGHFL` has protein stability index of 2.85

Per the record, `LLTITKAHSNAISNCCFTFSGHSL` has protein stability index of 2.72

Per the record, `LLTITKAHSNAISNCCFTFNGHFL` has protein stability index of 2.94

Per the record, `LLTITKAHSNAISNACFTFSGHFL` has protein stability index of 4.06

Per the record, `LLTITKAHSNAISNVCFTFSGHFL` has protein stability index of 3.3

Per the record, `LLTITKAISNAISNCCFTFSGHFL` has protein stability index of 2.57

Per the record, `LLTITKAHSNAISNCCFTFSGHIL` has protein stability index of 2.79

Per the record, `LLTQTKAHSNAISNCCFTFSGHFL` has protein stability index of 1.8

Per the record, `LLTITKAHSNAISNCCFTFSGCFL` has protein stability index of 3.5

Per the record, `LLTITKAHSNAISNCCFTFEGHFL` has protein stability index of 2.51
